Entries annotated with measured IC50
TESTED_TARGET: recombinant human FAK1 (Homo sapiens, UniProt Q05397)
Construct: fused on or other part: N-terminal 6xHis tag
Sequence (Q05397 422-680 limits assumed): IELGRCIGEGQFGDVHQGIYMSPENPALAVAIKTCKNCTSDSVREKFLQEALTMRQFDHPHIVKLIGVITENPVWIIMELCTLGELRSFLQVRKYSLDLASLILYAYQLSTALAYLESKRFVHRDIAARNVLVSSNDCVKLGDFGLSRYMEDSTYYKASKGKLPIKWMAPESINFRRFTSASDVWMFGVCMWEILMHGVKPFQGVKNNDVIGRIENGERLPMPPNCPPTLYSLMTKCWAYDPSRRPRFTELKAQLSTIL
METHOD: FAK1 HTRF assay
Procedure: Active FAK1 was prepared for use in the Homogeneous Time-Resolved Fluorescence (HTRF) assay. Briefly, N-terminal 6 His tagged recombinant human FAK1, from residue 692-end (GenBank accession no. L13616) was expressed by Bacculovirus in sf9 cells. […] • 1. […] The readings were taken in Pherastar in HTRF mode (ext 337 nm, em 665 & 620 nm) • 9. The results were analyzed using Graphpad Prism® software after calculation the z factor signal window and % inhibition. • 10. The IC50 was calculated.

COc1cc(Nc2ncc3ccn(S(=O)(=O)c4cccc5cccnc45)c3n2)ccc1NC(=O)C1CC1 [Example 376] :: < 20 nM
CNC(=O)c1ccc(Nc2ncc3ccn(Cc4cc(C)ccc4N(C)S(C)(=O)=O)c3n2)cc1 [Example 986] :: < 20 nM
COc1cc(Nc2cc3c(ccn3S(=O)(=O)c3ccccc3C#N)cn2)ccc1N1CCN(C)CC1 [Example 492] :: < 20 nM

q: Which IC50 is listed for CN(c1ccccc1Cn1ccc2cnc(Nc3ccc(N4CCN5C(=O)CCC5C4)cc3)nc21)S(C)(=O)=O (stereo not shown) [Example 436] ?
a: < 20 nM

q: Give its IC50 value. Item: CC(=O)Nc1cccc(Nc2ncc3ccn(S(=O)(=O)c4ccc(OC(F)(F)F)cc4)c3n2)c1 [Example 44]
a: > 1000 nM

q: IC50 lookup needed for CC1CN(c2ccc(Nc3ncc4ccn(Cc5ccccc5N(C)S(C)(=O)=O)c4n3)cc2)CC(C)N1 (stereo not shown) [Example 523] , thanks.
a: < 20 nM

q: Please report the recorded IC50 for Cc1cc(S(=O)(=O)n2ccc3cnc(Nc4ccc(N5CCNCC5)cc4)nc32)c2ncccc2c1 [Example 357] .
a: < 20 nM

q: Given the entry Cc1cn(S(=O)(=O)c2cccc3cccnc23)c2nc(Nc3ccc(N4CCNCC4)cc3)ncc12 [Example 769] , report its measured IC50.
a: < 20 nM

q: Returns the measured IC50 for the input compound. Input: O=C1CCc2cc(Nc3ncc4ccn(S(=O)(=O)c5cccc6ccccc56)c4n3)ccc2N1 [Example 223]
a: < 20 nM

q: // lookup IC50 for CS(=O)(=O)c1ccc(Nc2cc3c(ccn3S(=O)(=O)c3ccccc3OC(F)(F)F)cn2)cc1 [Example 57]
a: > 1000 nM

q: Looking for the measured IC50 of COc1cc(N2CCNCC2)ccc1Nc1ncc2c(n1)N(S(=O)(=O)c1cccc3cccnc13)CC2(C)C [Example 446] , can you help?
a: < 20 nM

q: Bench note: what IC50 did O=S(=O)(c1cccc2cccnc12)n1ccc2cnc(Nc3ccc(CN4CCC(F)(F)CC4)cc3)nc21 [Example 248] show?
a: < 20 nM

q: Fill blank: measured IC50 of the compound O=C1CCc2cc(Nc3ncc4ccn(S(=O)(=O)c5ccc(OC(F)(F)F)cc5)c4n3)ccc2N1 [Example 41] is ____.
a: > 1000 nM

q: State the recorded IC50 for this entry: COc1ccc(N(C)S(C)(=O)=O)c(Cn2ccc3cnc(Nc4ccc(N5CCNCC5)cc4)nc32)c1 [Example 661]
a: < 20 nM

q: Give the measured IC50 of COc1ccccc1S(=O)(=O)n1ccc2cnc(Nc3ccc(N4CCNCC4)cc3)cc21 [Example 343] .
a: < 20 nM

q: Look at this compound and give its reported IC50. O=S(=O)(c1cccc2cccnc12)n1ccc2cnc(Nc3ccc(N4CCC(O)CC4)cc3)cc21 [Example 346]
a: < 20 nM

q: For CN(C)C1CCN(c2ccc(Nc3ncc4c(n3)N(S(=O)(=O)c3cccc5cccnc35)CC4(C)C)cc2)CC1 [Example 500] , what is its reported IC50?
a: < 20 nM

FYI, the data here is from patent US20160222014A1.
